FYI, the data here is from PubChem BioAssay (NCI).

Below, each entry is listed alongside its reported TGI.
test system: U251 CNS; experiment: NCI tumour cell line growth inhibition, 48 h
Numeric only. Scale: µM

stdin: Which TGI value belongs to CC(=O)c1ccc2c(c1)CC1(C2)Cc2cc3c(cc2C1)C(=O)CC3 (configuration not stated) ?
stdout: 34

stdin: Okay, and CC1(c2cccc(C3CCC4(C=CC3=O)OCCO4)c2)OCCO1 (configuration not stated) ?
stdout: 33.8

stdin: Okay, and CC1=C(C(=O)Nc2ccc(F)c(Cl)c2)C(c2cccc(Cl)c2)NC(=O)N1 (configuration not stated) ?
stdout: 32.5

---

tested on: DU-145 prostate; assay: NCI tumour cell line growth inhibition, 48 h; in the data active means GI50 below about 0.43 µM; inactive means the rest
Assign a class; possible classes are active, inactive

Before answering, review these 5 worked examples.
- smiles-notation: "O=C1NC(=NCc2ccccn2)S/C1=C\\c1ccc2ncccc2c1"
  assigned-category: "inactive"
- smiles-notation: "CC(C)(C)CC(C)(C)Cc1ccc(OCCOCC[N+](C)(C)Cc2ccccc2)cc1"
  assigned-category: "inactive"
- smiles-notation: "O=C1c2cccnc2-c2nc(-c3ccc([N+](=O)[O-])cc3)cc3c2c1nc1ccccc13"
  assigned-category: "inactive"
- smiles-notation: "Cc1ccc(Cl)cc1Nc1nc(C(F)(F)F)ccc1C(=O)Oc1ccc(Cl)cc1"
  assigned-category: "inactive"
- smiles-notation: "Oc1ccc2ccccc2c1/C=N\\Nc1ccccn1"
  assigned-category: "inactive"

stdin: In this assay, the call recorded for "COc1ccc(-n2c(N)c(C(=O)NCCN3CCOCC3)c3nc4ccccc4nc32)cc1OC" was what?
stdout: inactive

stdin: Okay, and "C=C1C(=O)O[C@H]2[C@H]1CC/C(Cn1cc(CCC)nn1)=C\CC[C@@]1(C)O[C@@H]21" ?
stdout: inactive

stdin: Okay, and "Cn1c2ccccc2c2c3c(c4c5ccccc5n(CCCCCC#N)c4c21)C(=O)N(O)C3=O" ?
stdout: active

stdin: Okay, and "CN(C)/[N+]([O-])=N/Oc1cc(Nc2ccc(C(=O)O)cc2)c([N+](=O)[O-])cc1[N+](=O)[O-]" ?
stdout: inactive
